Target: T1, cyno FcRn/b2M (cyno, UniProt Q8SPV9 24-297; Q8SPW0 21-119, biotinylated)
T1 construct: bought recombinant biotinylated protein (Immunitrack ITF05 or ACRO FCM-C82W5); also called cFcRn; cFcRn/cb2M
T1 sequence (Q8SPV9 24-297 limits assumed, chain 1 of 2): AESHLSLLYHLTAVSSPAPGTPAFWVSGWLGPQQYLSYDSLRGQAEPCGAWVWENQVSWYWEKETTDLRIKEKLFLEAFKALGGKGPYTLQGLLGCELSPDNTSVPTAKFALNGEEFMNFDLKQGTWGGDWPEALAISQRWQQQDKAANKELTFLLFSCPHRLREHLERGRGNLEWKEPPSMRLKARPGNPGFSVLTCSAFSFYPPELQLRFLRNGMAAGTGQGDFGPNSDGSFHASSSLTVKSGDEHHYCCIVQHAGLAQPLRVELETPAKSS
T1 sequence (Q8SPW0 21-119 limits assumed, chain 2 of 2): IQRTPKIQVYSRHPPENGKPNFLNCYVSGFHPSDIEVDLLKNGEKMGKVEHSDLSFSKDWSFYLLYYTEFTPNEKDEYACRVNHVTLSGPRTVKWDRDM
Assay: SPR pH 7.4;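 note: surface plasmon resonance kinetics, periplasmic extracts diluted 1:10 flowed over immobilized target at 25 °C, 120 s association then 600–3600 s dissociation, buffer with 150 mM NaCl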
assay_metric: koff (s⁻¹)
Answers are plain numbers, in s⁻¹.

Examples with their reported koff follow.
binder	koff, s⁻¹
T0263018B11 S56T (VHH, name in Kabat numbering, FLAG3-His6 tagged) VHH: EVQLVESGGGVVQPGGSLRLSCAASGFTFSSYAMYWVRQAPGKGLEWVSAISSGGGTTDYADSVKGRFTISRDNSKNTLYLQMNSLRPEDTALYYCAADTLYTSLTWYSYWGQGTLVTVSS	0.047
T0263018B11 S52V (VHH, name in Kabat numbering, FLAG3-His6 tagged) VHH: EVQLVESGGGVVQPGGSLRLSCAASGFTFSSYAMYWVRQAPGKGLEWVSAIVSGGGSTDYADSVKGRFTISRDNSKNTLYLQMNSLRPEDTALYYCAADTLYTSLTWYSYWGQGTLVTVSS	0.064

Below is a list of binders. For each, state its recorded koff.
1. T0263018B11 S31Q (VHH, name in Kabat numbering, FLAG3-His6 tagged) VHH: EVQLVESGGGVVQPGGSLRLSCAASGFTFSQYAMYWVRQAPGKGLEWVSAISSGGGSTDYADSVKGRFTISRDNSKNTLYLQMNSLRPEDTALYYCAADTLYTSLTWYSYWGQGTLVTVSS
2. T0263018B11 T57V (VHH, name in Kabat numbering, FLAG3-His6 tagged) VHH: EVQLVESGGGVVQPGGSLRLSCAASGFTFSSYAMYWVRQAPGKGLEWVSAISSGGGSVDYADSVKGRFTISRDNSKNTLYLQMNSLRPEDTALYYCAADTLYTSLTWYSYWGQGTLVTVSS

[reply]
0.013
0.027
